procedure_summary: EWS/Fli-driven NR0B1 reporter inhibitors, primary screen, A673 cells, NR0B1 luciferase, luminescence, MLPCN library (AID 651661);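 also: firefly luciferase signal divided by Alamar Blue viability fluorescence both relative to DMSO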
recorded_conditions: viability-normalised, at 12.6 µM, hits give high values
Screen size: about 350,000 compounds; about 2,300 (0.66%) were called active. Only a selection was taken, and actives are over-represented in it overall.
attribute_measured: inhibition

{"chemical_structure": "CN(C)CC(=O)N1[C@@H](C#N)[C@@H](c2ccccc2-c2ccccc2F)[C@@H]1CO", "test_value": "-0.399% (inactive)"}
{"chemical_structure": "COCC(=O)Nc1ccc2c(c1)C(=O)N(C)[C@@H]1CC[C@H](CC(=O)NCCc3ccccc3)O[C@@H]1CO2", "test_value": "6.92% (inactive)"}
{"chemical_structure": "COc1ccccc1-c1ccc2n(c1=O)C[C@@H]1[C@@H](CO)[C@H](C(=O)NCc3ccccc3Cl)N[C@H]21", "test_value": "-17.8% (inactive)"}
{"chemical_structure": "CC(C)NC(=O)N1C[C@@H]2[C@H](c3ccccc31)[C@@H](CO)N2Cc1ccc(Cl)cc1", "test_value": "14.5% (inactive)"}

====

procedure_summary: EWS/Fli-driven NR0B1 reporter inhibitors, primary screen, A673 cells, NR0B1 luciferase, luminescence, MLPCN library (AID 651661)
recorded_conditions: viability-normalised, at 12.6 µM, hits give high values
The whole screen tested about 350,000 compounds, of which about 2,300 (0.66%) were called active. The list comes from a sample in which actives are over-represented; it also holds close analogues and randomly drawn compounds.
attribute_measured: inhibition (%)

{"chemical_structure": "CS(=O)(=O)N1CCN(C(=O)c2cc3ccccc3oc2=O)CC1", "test_value": -13.4}
{"chemical_structure": "O=C(C1CCC1)N1CC[C@@H]2[C@H]1c1cc(C#Cc3ccc(F)cc3)ccc1N[C@@H]2CO", "test_value": 11}
{"chemical_structure": "CCOc1ccc(C(=O)Nc2ccc(CN3CCOCC3)cc2)cc1Cl", "test_value": -7.97}
{"chemical_structure": "O=c1oc2ccccc2cc1-c1cn(-c2ccccc2)c(=S)[nH]1", "test_value": 67.6}
{"chemical_structure": "COCC(=O)Nc1ccc2c(c1)OC[C@@H](C)N(C(=O)c1cnccn1)C[C@H](C)[C@@H](OC)CN(C)C2=O", "test_value": -0.326}
{"chemical_structure": "COc1ccc(/C=C2\\SC(=S)N(CCC(=O)N3CCOCC3)C2=O)cc1OC", "test_value": 0.114}
{"chemical_structure": "CCCC#Cc1ccc2c(c1)O[C@H](CN(C)C(=O)C1CCCCC1)[C@H](C)CN([C@H](C)CO)S2(=O)=O", "test_value": 9.13}
{"chemical_structure": "CCOc1ccc(C(=O)NC(=S)Nc2ccc(N3CCOCC3)c(Cl)c2)cc1[N+](=O)[O-]", "test_value": 72}
{"chemical_structure": "COc1ccc(-c2cnc3c(c2)C(=O)N([C@@H](C)CO)C[C@H](C)[C@@H](CN(C)C(=O)C2CC2)O3)cc1", "test_value": -4.94}

====

procedure_summary: EWS/Fli-driven NR0B1 reporter inhibitors, primary screen, A673 cells, NR0B1 luciferase, luminescence, MLPCN library (AID 651661)
recorded_conditions: viability-normalised, at 12.6 µM
Screen size: about 350,000 compounds; about 2,300 (0.66%) were called active.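 Rule for the calls: active = mean inhibition of at least 50% after viability correction, with every replicate also passing that limit; inconclusive = mean reaches 50% but only one of two replicates passes; inactive = the rest.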 The list comes from a sample in which actives are over-represented; it also holds close analogues and randomly drawn compounds.
Classes used: Y = active, N = inactive

{"chemical_structure": "CCCNC(=O)N1[C@@H]2Cn3c(ccc(-c4ccc(OC)cc4)c3=O)[C@H]1[C@@H](C(=O)NC1CCC1)[C@@H]2CO", "class_name": "N"}
{"chemical_structure": "C[C@@H]1CCCCO[C@@H](CN(C)Cc2ccncc2)[C@H](C)CN([C@H](C)CO)C(=O)c2cc(NC(=O)CCC(F)(F)F)ccc2O1", "class_name": "N"}
{"chemical_structure": "CNC[C@H]1Oc2ccc(N(C)C)cc2CC(=O)N([C@@H](C)CO)C[C@@H]1C", "class_name": "N"}
{"chemical_structure": "CO[C@@H]1CN(C)C(=O)c2ccc(NC(=O)c3ccc(F)cc3)cc2OC[C@H](C)N(C)C[C@H]1C", "class_name": "N"}
{"chemical_structure": "C[C@@H]1CN([C@H](C)CO)C(=O)Cc2cc(NC(=O)CCCCCC(=O)Nc3ccccc3N)ccc2O[C@H]1CN(C)S(=O)(=O)c1ccc(F)cc1", "class_name": "N"}
{"chemical_structure": "CN1CCN(CCCNC(=O)c2ccc(/C=C3\\Oc4ccccc4N(Cc4ccc(Cl)cc4)C3=O)cc2)CC1", "class_name": "Y"}
{"chemical_structure": "CCCN1CCN(CCCNC(=O)CN2C(=O)COc3ccccc32)CC1", "class_name": "N"}
{"chemical_structure": "CO[C@H]1CN(C)C(=O)c2cc(NC(=O)c3cnccn3)ccc2OC[C@@H](C)N(CC2CC2)C[C@@H]1C", "class_name": "N"}

====

procedure_summary: EWS/Fli-driven NR0B1 reporter inhibitors, primary screen, A673 cells, NR0B1 luciferase, luminescence, MLPCN library (AID 651661);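 also: firefly luciferase signal divided by Alamar Blue viability fluorescence both relative to DMSO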
recorded_conditions: viability-normalised, at 12.6 µM, hits give high values
In all, about 350,000 compounds went through this assay and about 2,300 (0.66%) were called active. This excerpt belongs to a sample that is enriched for actives.
The label is y for inhibition below 10% and n for inhibition equal to or exceeding 10%.

{"chemical_structure": "CCOc1ncccc1C(=O)Nc1ccc2c(c1)OCCO2", "class_name": "y"}
{"chemical_structure": "C[C@H]1CN([C@@H](C)CO)C(=O)c2cccc(NS(=O)(=O)c3ccc(F)cc3)c2O[C@@H]1CN(C)C", "class_name": "y"}
{"chemical_structure": "CCC(=O)N(C)C[C@H]1Oc2cc(C#CCOC)ccc2S(=O)(=O)N([C@H](C)CO)C[C@H]1C", "class_name": "y"}
{"chemical_structure": "Cc1ccc2nc(-c3ccncc3)cc(C(=O)Nc3ccc(OC(F)F)cc3)c2c1", "class_name": "n"}
{"chemical_structure": "Cc1onc(-c2ccccc2)c1C(=O)N=C(N)c1ccc(Cl)cc1", "class_name": "y"}
{"chemical_structure": "O=C(NCC[C@H]1CC[C@@H](NS(=O)(=O)c2cccc(Cl)c2)[C@@H](CO)O1)c1cnccn1", "class_name": "y"}
{"chemical_structure": "C[C@@H]1CN([C@@H](C)CO)C(=O)Cc2cc(NC(=O)C3CCCCC3)ccc2O[C@@H]1CN(C)Cc1ccc(C(=O)Nc2ccccc2N)cc1", "class_name": "n"}
{"chemical_structure": "Cc1nc(N=C(N)N)nc2c(C)cccc12", "class_name": "n"}
{"chemical_structure": "Cc1ccc2nc(-c3ccncc3)cc(C(=O)Nc3ccc4c(c3)OCCO4)c2c1", "class_name": "n"}

====

procedure_summary: EWS/Fli-driven NR0B1 reporter inhibitors, primary screen, A673 cells, NR0B1 luciferase, luminescence, MLPCN library (AID 651661);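 also: firefly luciferase signal divided by Alamar Blue viability fluorescence both relative to DMSO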
recorded_conditions: viability-normalised, at 12.6 µM
About 2,300 (0.66%) of roughly 350,000 compounds were called active.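 The calls were made as follows: active = mean inhibition of at least 50% after viability correction, with every replicate also passing that limit; inconclusive = mean reaches 50% but only one of two replicates passes; inactive = the rest.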 This excerpt belongs to a sample that is enriched for actives.
Possible outcomes: y (active), n (inactive)

{"compound": "CCC(=O)Nc1ccc2c(c1)C(=O)N(C)[C@H]1CC[C@H](CC(=O)NC3Cc4ccccc4C3)O[C@H]1CO2", "class_name": "n"}
{"compound": "O=C(CSc1ncn[nH]1)Nc1ccc(Br)cc1Br", "class_name": "n"}
{"compound": "Cc1cccc(CNS(=O)(=O)c2ccc(-c3cnc(C4CC4)o3)cc2)c1", "class_name": "n"}
{"compound": "CCCC(=O)N1CC2(C1)CN(C(=O)COC)[C@@H](CO)c1c2c2ccc(OC)cc2n1C", "class_name": "n"}
{"compound": "Nc1c(C(=O)NCc2ccccc2)nnn1Cc1cccc(Cl)c1", "class_name": "y"}
{"compound": "CC[C@]1(O)CC2CN(CCc3c([nH]c4ccccc34)[C@@](C(=O)OC)(c3cc4c(cc3OC)N(C=O)[C@H]3[C@@](O)(C(=O)OC)[C@H](OC(C)=O)[C@]5(CC)C=CCN6CC[C@]43[C@@H]65)C2)C1 (some centres not stated)", "class_name": "y"}
{"compound": "Cc1cccc(NS(=O)(=O)c2ccc(-c3cnc(C4CC4)o3)cc2)c1", "class_name": "y"}

====

procedure_summary: EWS/Fli-driven NR0B1 reporter inhibitors, primary screen, A673 cells, NR0B1 luciferase, luminescence, MLPCN library (AID 651661);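 also: firefly luciferase signal divided by Alamar Blue viability fluorescence both relative to DMSO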
recorded_conditions: viability-normalised, at 12.6 µM, hits give high values
About 2,300 (0.66%) of roughly 350,000 compounds were called active. Many of the other results were omitted from the sample, so actives are more common in it than they were.
attribute_measured: inhibition (%)

{"molecule": "COC(=O)C(CC#Cc1ccc2c(c1)[C@]1(C(=O)N2)[C@H](c2ccc(O)cc2)N2[C@H](c3ccccc3)[C@H](c3ccccc3)OC(=O)[C@H]2[C@@H]1C(=O)NC[C@H](O)c1ccccc1)C(=O)OC", "test_value": -4.53}
{"molecule": "COc1cccc(S(=O)(=O)N(C)C[C@@H]2Oc3ncc(-c4cccc(C(=O)N(C)C)c4)cc3C(=O)N([C@H](C)CO)C[C@H]2C)c1", "test_value": -6.58}
{"molecule": "C[C@@H]1CN([C@@H](C)CO)C(=O)Cc2cc(NC(=O)CCCCCC(=O)Nc3ccccc3N)ccc2O[C@@H]1CN(C)C(=O)NC1CCCCC1", "test_value": 2.61}
{"molecule": "CCC(=O)N1CC(=O)N2[C@@H](CO)[C@H](c3ccc(C#CC4CCCC4)cc3)[C@@H]2C1", "test_value": 56.6}
{"molecule": "COc1ccc2c3c(n(C)c2c1)[C@@H](CO)N(C)CC31CN(S(=O)(=O)c2cccs2)C1", "test_value": 3.63}
{"molecule": "COc1cccc(NC(=O)N2CC[C@@H]3[C@@H](CO)N(C)c4ccc(-c5cccc(F)c5)cc4[C@@H]32)c1", "test_value": -0.284}
{"molecule": "Cc1ccccc1S(=O)(=O)N1[C@H](CO)[C@@H](c2ccc(-c3ccccc3)cc2)[C@@H]1C#N", "test_value": 18.6}
{"molecule": "C[C@H](CO)N1C[C@H](C)[C@@H](CN(C)S(=O)(=O)c2cn(C)cn2)OCCCC[C@H](C)Oc2ccc(NC(=O)Cc3ccccc3)cc2C1=O", "test_value": 2.69}
{"molecule": "C[C@H](CO)N1C[C@H](C)[C@@H](CN(C)Cc2ccc(-c3ccccc3)cc2)Oc2ccc(NC(=O)CCC(F)(F)F)cc2CC1=O", "test_value": 72.1}
{"molecule": "CC(C)OC(=O)N(C)C[C@@H]1OCc2ccccc2-c2c(n(C)c3ccccc23)C(=O)N([C@H](C)CO)C[C@H]1C", "test_value": 8.3}
{"molecule": "C[C@@H]1CN([C@@H](C)CO)C(=O)c2cc(-c3ccncc3)cnc2O[C@@H]1CN(C)C(=O)C1CCCCC1", "test_value": -4.18}
{"molecule": "O=C(Nc1ccc(F)cc1)N1CCCCN2[C@H](CO)[C@H](c3ccc(C#Cc4ccccc4)cc3)[C@H]2C1", "test_value": 84.6}
{"molecule": "COc1ccc2c3c(n(C)c2c1)[C@H](CO)N(Cc1ccccc1Cl)CC31CN(C(=O)CN(C)C)C1", "test_value": 6.01}
{"molecule": "O=C(Nc1ccc(F)cc1)N[C@@H]1CC[C@H](CC(=O)N2CCCCC2)O[C@H]1CO", "test_value": 6.37}
{"molecule": "C[C@H]1CN([C@@H](C)CO)C(=O)Cc2cc(NC(=O)CCCN(C)C)ccc2O[C@@H]1CN(C)Cc1ccc(-c2ccccc2)cc1", "test_value": -8.76}
{"molecule": "COC(=O)C1=C(C)N(Cc2cccc(C(F)(F)F)c2)C(=NCc2ccccc2)NC1c1ccc(Cl)cc1 (stereo not given)", "test_value": 36.5}
{"molecule": "COc1cccc(NC(=O)C[C@H]2CC[C@@H]3[C@H](COc4ccc(NC(C)=O)cc4C(=O)N3C)O2)c1", "test_value": -0.492}
{"molecule": "CCCc1cc(=O)[nH]c(SCC(=O)c2c(N)n(CC(C)C)c(=O)n(C)c2=O)n1", "test_value": 61.7}
{"molecule": "C[C@@H](NC(=O)C[C@H]1C[C@@H]2c3cc(NC(=O)c4ccc5c(c4)OCO5)ccc3O[C@@H]2[C@@H](CO)O1)c1ccccc1", "test_value": 2.79}
{"molecule": "CN(C)c1ccc2c(c1)[C@@H]1C[C@@H](CC(=O)NCc3ccccn3)O[C@H](CO)[C@@H]1O2", "test_value": -4.51}
{"molecule": "COC(=O)C[C@H]1C=C[C@H](NC(=O)Nc2ccc(C(F)(F)F)cc2)[C@@H](CO)O1", "test_value": -13.7}
{"molecule": "Cc1cccc(S(=O)(=O)N2C[C@@H]3[C@H](c4ccccc42)[C@@H](CO)N3C(=O)c2ccccc2)c1", "test_value": 1.99}
{"molecule": "COCC(=O)N1CC(=O)N2[C@H](CO)[C@@H](c3ccc(C#CC4CCCC4)cc3)[C@H]2C1", "test_value": -0.851}
{"molecule": "COc1ccc(S(=O)(=O)N(C)C[C@@H]2Oc3ccc(NC(=O)C4CC4)cc3CC(=O)N([C@@H](C)CO)C[C@H]2C)cc1", "test_value": -1.28}
{"molecule": "C[C@H]1CN([C@@H](C)CO)S(=O)(=O)c2ccc(-c3cccc(C#N)c3)cc2O[C@H]1CN(C)C(=O)c1ccccc1", "test_value": 4.97}
{"molecule": "CC(C)NC(=O)N(C)C[C@H]1Oc2ccc(NC(=O)CCCCCC(=O)Nc3ccccc3N)cc2CC(=O)N([C@@H](C)CO)C[C@H]1C", "test_value": -5.03}
{"molecule": "C[C@H]1CN([C@@H](C)CO)C(=O)Cc2cc(NC(=O)CCCCCC(=O)Nc3ccccc3N)ccc2O[C@@H]1CN(C)Cc1ccncc1", "test_value": -9.64}
{"molecule": "Cc1ccc(-c2nc3ccc(Cl)cn3c2Cc2ccccc2)cc1", "test_value": -80.4}
{"molecule": "CNC[C@H]1OCCCC[C@@H](C)Oc2ccc(NC(=O)c3ccncc3)cc2C(=O)N([C@H](C)CO)C[C@H]1C", "test_value": 0.415}
{"molecule": "COc1ccc(C#Cc2ccc([C@H]3[C@@H](CO)N4CCCCN(C(=O)Nc5ccccc5)C[C@H]34)cc2)cc1", "test_value": 17.2}
